Overview of recorded protein stability index for various variants
B1: TSN (parent)
chain: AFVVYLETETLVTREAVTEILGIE

- Variants of: B1
- METHOD SUMMARY: protein stability index of a GFP-peptide fusion (GPS, HEK-293T) (PSI 1-6); higher = more stable;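 note: lentivirally expressed fusions sorted by FACS into six bins by GFP to DsRed ratio, PSI derived from sequencing read proportions per bin multiplied by bin number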
- EXPERIMENTAL SETUP: c terminus: a fixed tail appended

# CHANGES, protein stability index
data = [
    ("A1H", 2.54),
    ("T10E", 1.39),
    ("I20E", 1.28),
    ("E9D", 3.4),
    ("T10P", 2.45),
    ("V4Q", 1.36),
    ("A16P", 3.89),
]
